Biological target: HLA-A*30:01
Assay: IEDB peptide-MHC binding, purified MHC/competitive/radioactivity; filed as Kd, often an IC50 or EC50 that approximates it; bounds were set here for any values at or beyond the usual limits of such assays
Conditions: source organism: Mammarenavirus juninense
Measurement Label: pKd
One number for each entry, as −log10 of the molar value.

Qu. // returns reported pKd for input KTGEKSRCY
Ans. 5.61

---

Target: HLA-A*26:01
Experiment: IEDB peptide-MHC binding, purified MHC/competitive/radioactivity; filed as Kd, often an IC50 or EC50 that approximates it; bounds were set here for any values at or beyond the usual limits of such assays
Details: source organism: Mammarenavirus choriomeningitidis
pKd: −log10 of the molar value.
Measurement Label: pKd

Qu. Give pKd (HLA-A*26:01) of the following sequence: WCSQTNYQY
Ans. ≤ 4.11

---

Biological target: HLA-B*07:02
Test: IEDB peptide-MHC binding, purified MHC/direct/fluorescence; filed as Kd, often an IC50 or EC50 that approximates it; bounds were set here for any values at or beyond the usual limits of such assays
Conditions: source organism: Influenza A virus (A/Puerto Rico/8/34/Mount Sinai(H1N1))
Measurement Label: pKd
Numbers only, as −log10 of the molar value.

Qu. // returns reported pKd for input QMRDVLGTF
Ans. 6.42

---

Biological target: HLA-A*26:01
Assay: IEDB peptide-MHC binding, purified MHC/competitive/fluorescence; filed as Kd, often an IC50 or EC50 that approximates it; bounds were set here for any values at or beyond the usual limits of such assays
Details: source organism: Helicobacter pylori 26695
Measurement Label: Kd

Qu. Give Kd (HLA-A*26:01) of the following sequence: GIVCYNEEV
Ans. ≥ 20 µM

---

Target: HLA-A*01:01
Experiment: IEDB peptide-MHC binding, purified MHC/competitive/radioactivity; filed as Kd, often an IC50 or EC50 that approximates it; bounds were set here for any values at or beyond the usual limits of such assays
Details: source organism: Lassa virus Josiah
Measurement Label: Kd

Qu. // returns reported Kd for input VFRTSTPRVV
Ans. ≥ 70.4 µM

---

Biological target: HLA-A*31:01
Experiment: IEDB peptide-MHC binding, purified MHC/direct/fluorescence; filed as Kd, often an IC50 or EC50 that approximates it; bounds were set here for any values at or beyond the usual limits of such assays
Settings: source organism: Mycobacterium tuberculosis
pKd: −log10 of the molar value.
Measurement Label: pKd

Could you report pKd for every entry in the following list?
1. GPAGYTAAL
2. AVFLSYIGY
3. ATADLELAY

Ans.
1: ≤ 4.70; 2: ≤ 4.70; 3: ≤ 4.70

---

Target: HLA-B*15:01
Test: IEDB peptide-MHC binding, purified MHC/direct/fluorescence; filed as Kd, often an IC50 or EC50 that approximates it; bounds were set here for any values at or beyond the usual limits of such assays
Details: source organism: Salmonella enterica
pKd: −log10 of the molar value.
Measurement Label: pKd

Qu. // returns reported pKd for input EEQTDPKTL
Ans. ≤ 4.70

---

Target: HLA-A*01:01
Test: IEDB peptide-MHC binding, purified MHC/competitive/radioactivity; filed as Kd, often an IC50 or EC50 that approximates it; bounds were set here for any values at or beyond the usual limits of such assays
Conditions: source organism: Mammarenavirus machupoense
Measurement Label: pKd
Give bare numbers, as −log10 of the molar value.

Qu. Give pKd (HLA-A*01:01) of the following sequence: LSSGEPHCA
Ans. 5.36

---

Biological target: HLA-B*40:02
Assay: IEDB peptide-MHC binding, purified MHC/competitive/fluorescence; bounds were set here for any values at or beyond the usual limits of such assays
Details: source organism: Homo sapiens
pIC50: −log10 of the molar value.
Measurement Label: pIC50

Qu. // returns reported pIC50 for input LPSCPTNFCIF
Ans. ≤ 4.70

---

Target: HLA-C*14:02
Test: IEDB peptide-MHC binding, purified MHC/direct/fluorescence; filed as Kd, often an IC50 or EC50 that approximates it; bounds were set here for any values at or beyond the usual limits of such assays
Conditions: source organism: Homo sapiens
Measurement Label: pKd
Give bare numbers, as −log10 of the molar value.

Qu. Give pKd (HLA-C*14:02) of the following sequence: YTASVVAAY
Ans. 7.01

---

Molecular target: HLA-B*58:01
Assay: IEDB peptide-MHC binding, purified MHC/direct/fluorescence; filed as Kd, often an IC50 or EC50 that approximates it; bounds were set here for any values at or beyond the usual limits of such assays
Conditions: source organism: Burkholderia mallei
Measurement Label: pKd
Answers are plain numbers, as −log10 of the molar value.

Qu. // returns reported pKd for input ISDSAQNMM
Ans. 6.82

---

Biological target: HLA-B*48:01
Assay: IEDB peptide-MHC binding, purified MHC/direct/fluorescence; filed as Kd, often an IC50 or EC50 that approximates it; bounds were set here for any values at or beyond the usual limits of such assays
Details: source organism: Camelpox virus M-96
pKd: −log10 of the molar value.
Measurement Label: pKd

Worked examples, 2 sequences total:
Primary Sequence	pKd
FTENGPWMY	≤ 4.70
ITMVNSLTY	≤ 4.70

// moving on: another record for pKd
Qu. // returns reported pKd for input GLYRLNFRR
Ans. ≤ 4.70

---

Target: HLA-A*11:01
Assay: IEDB peptide-MHC binding, purified MHC/competitive/fluorescence; filed as Kd, often an IC50 or EC50 that approximates it; bounds were set here for any values at or beyond the usual limits of such assays
Conditions: source organism: Brucella abortus S19
Measurement Label: pKd
One number for each entry, as −log10 of the molar value.

Qu. // returns reported pKd for input YWMGGTTYF
Ans. 5.68

---

For each entry below, report its pKd value.
Biological target: HLA-A*33:01
Test: IEDB peptide-MHC binding, purified MHC/competitive/radioactivity; filed as Kd, often an IC50 or EC50 that approximates it; bounds were set here for any values at or beyond the usual limits of such assays
Details: source organism: Vaccinia virus WR
One number for each entry, as −log10 of the molar value.

Primary Sequence	Measurement Label	Value Observed
RSTIFDIVSK	pKd	5.19
TLILSNKLLY	pKd	4.73
QQLEDIFMR	pKd	5.39

Could you report pKd for every entry in the following list?
1. VMNIERQDYR
2. FMRFFQLLR
3. PFTQHLLNIR
4. LSKWHTSAR
5. KVLAARLKR
6. FASADNHPK
7. GSIKIKQDVR
8. LILAEYIRHR

Ans.
1. 7.19
2. 8.71
3. 5.19
4. 7.82
5. 4.73
6. 5.91
7. 5.61
8. 5.27

Could you report pKd for every entry in the following list?
1. KTNSTVDVR
2. DLTTMPTYK
3. KMAVEVGSIR

Ans.
1: 4.88; 2: 6.04; 3: 4.86

Could you report pKd for every entry in the following list?
1. SSIDVDKRTK
2. EFVMCLEAK
3. MTIREFPRK
4. EIKAEMQLK
5. SADNHPKMIK

Ans.
5.05
6.82
5.86
5.82
6.84

Could you report pKd for every entry in the following list?
1. YFSFKKCLVY
2. DILTYNKTSK
3. IILAALFMY
4. GMLIYSMWGK
5. FLLRHYYNKR
6. RTFNEDLFR

Ans.
5.04
5.75
4.88
5.00
7.76
5.80

---

Biological target: HLA-B*57:01
Assay: IEDB peptide-MHC binding, purified MHC/direct/fluorescence; filed as Kd, often an IC50 or EC50 that approximates it; bounds were set here for any values at or beyond the usual limits of such assays
Details: source organism: Mycobacterium tuberculosis variant bovis
Measurement Label: Kd (µM)
One number for each entry, in µM.

Qu. // returns reported Kd for input VAFYCAGRF
Ans. 0.451

---

Biological target: HLA-B*51:01
Test: IEDB peptide-MHC binding, purified MHC/competitive/radioactivity; filed as Kd, often an IC50 or EC50 that approximates it; bounds were set here for any values at or beyond the usual limits of such assays
Settings: source organism: Triticum aestivum
Measurement Label: Kd (nM)
One number for each entry, in nM.

Qu. // returns reported Kd for input YPSGQGSF
Ans. 998

---

Target: HLA-A*01:01
Test: IEDB peptide-MHC binding, purified MHC/competitive/fluorescence; filed as Kd, often an IC50 or EC50 that approximates it; bounds were set here for any values at or beyond the usual limits of such assays
Conditions: source organism: Influenza A virus (A/equine/California/8560/2002(H3N8))
Measurement Label: Kd (nM)
Answers are plain numbers, in nM.

Qu. // returns reported Kd for input MTIASVPTSRY
Ans. 2040

---

Molecular target: HLA-A*11:01
Experiment: IEDB peptide-MHC binding, purified MHC/competitive/radioactivity; filed as Kd, often an IC50 or EC50 that approximates it; bounds were set here for any values at or beyond the usual limits of such assays
Settings: source organism: Dengue virus 4 Philippines/H241/1956
Measurement Label: pKd
One number for each entry, as −log10 of the molar value.

Qu. // returns reported pKd for input ALTLHWFRK
Ans. 7.00

Entry source: the Immune Epitope Database (IEDB)
